Experiment: Human HepG2 cell viability assay in 384 well format
Type: toxicity, cell-based
Parameters: dose 125 nL, time 70.5 hour; concentration not given beside the values
Conditions: HepG2 cells, read-out: Inhibition
READOUT: cytotoxicity at 70.5 h

Previously resolved entries follow.
>  <MOLECULE>
CN1CCN(CC(CC(=O)Nc2ccc(Cl)cc2)C(=O)O)CC1 (configuration not stated)

>  <DATA VALUE>
-5.4%

$$$$
>  <MOLECULE>
O=C(Cn1ccc(-c2ccccc2)n1)N1CCN(C(=O)C2CC2)CC1

>  <DATA VALUE>
-2.62%

$$$$
>  <MOLECULE>
CCc1nn(C)c2[nH]nc(NC(=O)c3cccnc3NC(C)C)c12

>  <DATA VALUE>
-50.3%

$$$$

Hi team, please reply with cytotoxicity at 70.5 h for each item in this list.
1. Cc1nc(CN2CCOC(Cn3cccn3)C2)no1 (configuration not stated)
2. CCOCCCn1c(NC(=O)c2scnc2C)nc2ccccc21

**A:**
1. -3.79%
2. 30.8%

Hi team, please reply with cytotoxicity at 70.5 h for each item in this list.
1. CN(CC(=O)N1CCCC1c1cnn(C)c1)c1ccc(Cl)cn1 (configuration not stated)
2. CC(C)C(=O)N1CCCC2(C1)CN(c1nncs1)CCO2 (configuration not stated)
3. Cc1nc(C2CCCN2C(=O)CCOCc2ccccc2)no1 (configuration not stated)
4. CN(CC(=O)N1CC(C)(C)[C@](O)(C2CC2)C1)Cc1ccncc1
5. Cc1nc2ccccn2c1CN1C[C@@H](CN2CCOCC2)[C@@H](CO)C1
6. Cc1cc(C[S+]([O-])Cc2ccccc2C)no1 (configuration not stated)

**A:**
1. 3.73%
2. -2.65%
3. -8.94%
4. -3.61%
5. 28.6%
6. -8.16%

**Q:** Fill in: cytotoxicity at 70.5 h of `NC(=O)CN1CCN(c2ccnc3c(F)ccc(F)c23)CC1` is ___
**A:** -1.57%
